Where do the numbers come from? From paper PMC6821881.

Target: T1, ZIKV E DIII protein (residues 301-403) (Zika virus (strain GZ01))
T1 chain: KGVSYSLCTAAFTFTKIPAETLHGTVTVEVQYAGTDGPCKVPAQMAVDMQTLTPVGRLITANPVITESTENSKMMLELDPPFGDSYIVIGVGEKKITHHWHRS
Assay: ELISA
measurement.name: EC50

1. 2L-3 (antibody, V domains shown) VH: EVQLVQSGAEVKKPGASVKVSCKASGYTFTSGHTFPSYDINWVRQATGQGLEWMGWMNPNRGNTGYAQKFQGRVTMTRNTSINTAYMELSSLRSEDTAVYYCARVRSGTNYGSYYYYYYGMDVWGQGTTVTVSS VL: QSVLTHRPSASGTPGQRVTISCSGSSSNIGSNYGYWYQQLPGTAPKLLIYRNNQRPSGVPDRFSGSKSGTSASLAISGLRSEDEADYYCAAWDDSLSGHWVFGGGTKLTVL	> 0.5 µg/mL
2. 2H-3 (antibody, V domains shown) VH: QVQLVQSGREVKKPGASVKVSCKASGYTFTSYEINWVRQATGQGLEWMGWMNPNSGNTGYAQKFQGRVTMTRNTSISTAYMELSSLRSEDTAVYYCARVSSGSYYGSYYYYYYGMDVWGQGTTVTVSS VL: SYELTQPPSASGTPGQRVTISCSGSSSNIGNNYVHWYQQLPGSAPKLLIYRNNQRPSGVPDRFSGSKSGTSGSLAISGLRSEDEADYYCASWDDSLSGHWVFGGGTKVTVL	0.039 µg/mL
3. 2L-9 (antibody, V domains shown) VH: EVQLVQSGAEVKKPGASVKVSCKASGYTFTSGHTFPSYDINWVRQATGQGLEWMGWMNPNRGNTGYAQKFQGRVTMTRNTSINTAYMELSSLRSEDTAVYYCARVRSGTNYGSYYYYYYGMDVWGQGTTVTVSS VL: SSVLTQPPSASGTPGQRVTISCSGSSTNIGSNYAYWYQYLPGTAPKLLIYRNNQRPSGVPDRFSGFKSGTSASLAVSGLRSEDEADYYCAAWDDSLSGHWVFGGGTKLTVL	> 0.5 µg/mL
